Each recorded value in this set is attributed to PubChem BioAssay AID651581.

target: Hypoxia-inducible factor 1-alpha (Homo sapiens) (UniProt Q16665); assay: HIF-2a and HIF-1a reporter inhibition panel, dose response, selectivity assay for HIF-2a inhibitor project, cell-based, luminescence (AID 651581); details: HIF-1a, run 2
Sequence (Q16665 whole entry, looked up): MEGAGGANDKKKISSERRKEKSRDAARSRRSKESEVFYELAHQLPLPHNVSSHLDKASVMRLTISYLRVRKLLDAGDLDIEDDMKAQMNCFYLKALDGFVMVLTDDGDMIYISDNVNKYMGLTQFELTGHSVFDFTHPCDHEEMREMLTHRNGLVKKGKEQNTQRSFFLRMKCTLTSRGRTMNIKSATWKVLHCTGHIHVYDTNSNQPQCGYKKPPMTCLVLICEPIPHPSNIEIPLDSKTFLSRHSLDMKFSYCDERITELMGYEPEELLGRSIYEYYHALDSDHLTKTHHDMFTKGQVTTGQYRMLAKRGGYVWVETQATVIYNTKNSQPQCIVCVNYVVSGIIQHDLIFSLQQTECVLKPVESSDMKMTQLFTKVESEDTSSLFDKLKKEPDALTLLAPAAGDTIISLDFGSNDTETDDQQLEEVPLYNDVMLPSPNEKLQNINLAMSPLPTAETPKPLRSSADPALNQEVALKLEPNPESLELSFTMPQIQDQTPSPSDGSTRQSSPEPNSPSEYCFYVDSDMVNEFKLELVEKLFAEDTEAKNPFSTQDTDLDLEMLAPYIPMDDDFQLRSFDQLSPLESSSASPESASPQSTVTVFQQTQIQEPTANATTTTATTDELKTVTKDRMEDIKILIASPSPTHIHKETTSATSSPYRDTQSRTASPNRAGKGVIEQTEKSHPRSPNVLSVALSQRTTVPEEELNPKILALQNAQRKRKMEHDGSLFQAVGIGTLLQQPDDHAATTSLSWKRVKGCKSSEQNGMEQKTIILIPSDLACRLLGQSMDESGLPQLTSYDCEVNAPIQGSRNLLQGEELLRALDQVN
outcome measure: pIC50
To interpret pIC50, take it as minus log10 of a concentration measured in moles per litre.

Example entries begin here.
• CCOC(=O)c1c(C)nn(-c2ccc(NC(=O)c3c(C)noc3C)cc2)c1C = 4.93
• Nc1ccc(-c2ncc(-c3ccccc3)o2)cc1 = 6.07

For Hypoxia-inducible factor 1-alpha (Homo sapiens) (UniProt Q16665), give the measured pIC50 of the entry `CCN(CC)S(=O)(=O)c1ccc(NC(=O)c2cccnc2Cl)c(NC(=O)c2cccnc2Cl)c1`
4.77

# return pIC50 for `CCOc1ccc2nc(SCc3ccc(CC(=O)O)cc3)c(C#N)cc2c1` , test system: Hypoxia-inducible factor 1-alpha (Homo sapiens) (UniProt Q16665)
4.86

Look up Hypoxia-inducible factor 1-alpha (Homo sapiens) (UniProt Q16665) data: pIC50 of `CC(=O)/C=C1/C(=O)Nc2ccccc21` , then report it.
4.58

Answer with pIC50 of `CCOC(=O)NC(=O)COC(=O)CCCSc1nc2ccccc2s1` measured for Hypoxia-inducible factor 1-alpha (Homo sapiens) (UniProt Q16665).
4.87

For Hypoxia-inducible factor 1-alpha (Homo sapiens) (UniProt Q16665), give pIC50 of the listed molecule: `COC(=O)c1ccc(C(=O)OC)c(-n2c(=O)c3ccccc3c3ccccc3c2=O)c1`
4.37

// fetch pIC50 for `Cc1nc2cc(-c3ccccc3)nn2c(C)c1CCC(=O)N1CCC2(CC1)OCCO2` ; system: Hypoxia-inducible factor 1-alpha (Homo sapiens) (UniProt Q16665)
4.28

Look up and report measured pIC50 (Hypoxia-inducible factor 1-alpha (Homo sapiens) (UniProt Q16665)) for the following molecule: `O=C(Nc1ccc(NC(=O)c2ccco2)cc1)c1ccc2c(c1)OCCO2`
4.07

====

biological target: Hypoxia-inducible factor 1-alpha (Homo sapiens); test: HIF-2a and HIF-1a reporter inhibition panel, dose response, selectivity assay for HIF-2a inhibitor project, cell-based, luminescence (AID 651581); conditions: HIF-1a, run 1
outcome measure: pIC50
Just the number, please; pIC50 means minus log10 of the concentration in mol/L.

• Cc1nc2cc(-c3ccccc3)nn2c(C)c1CCC(=O)N1CCC2(CC1)OCCO2 = 4.27
• O=Nc1c(O)ccc2cc(S(=O)(=O)O)ccc12 = 5.51

Okay, next one:
Give me measured pIC50, please, for this compound: `Cc1nnnn1/C(=C\c1ccccc1)C(=O)OCC(=O)Nc1cccc(S(=O)(=O)N(C)C)c1`
4.87

====

target: Endothelial PAS domain-containing protein 1 (Homo sapiens); test: HIF-2a and HIF-1a reporter inhibition panel, dose response, selectivity assay for HIF-2a inhibitor project, cell-based, luminescence (AID 651581); settings: HIF-2a PANC, mean of runs
Active and inactive are the calls of the source. The rule behind the calls is not given here.
Pick one and only one: 1 for active, 0 for inactive

- O=Cc1ccc(-c2cccs2)s1: 0
- COc1ccc(/C=C2\SC(=O)N(CCNC(=O)Cn3[nH]c(=O)c4ccccc4c3=O)C2=O)cc1: 1
- O=C(CCCc1ccccc1)Nc1cccc(C(=O)O)c1: 0

Please find the next compound below.
Which result was noted for this compound in the test: `CNC(=O)NC(=O)COC(=O)CCCSc1nc2ccccc2s1`
1
